# study system: full-length human RORγt (Homo sapiens (Human), UniProt P51449)
# Sequence (P51449 other isoform, or with tags, fused parts or gaps): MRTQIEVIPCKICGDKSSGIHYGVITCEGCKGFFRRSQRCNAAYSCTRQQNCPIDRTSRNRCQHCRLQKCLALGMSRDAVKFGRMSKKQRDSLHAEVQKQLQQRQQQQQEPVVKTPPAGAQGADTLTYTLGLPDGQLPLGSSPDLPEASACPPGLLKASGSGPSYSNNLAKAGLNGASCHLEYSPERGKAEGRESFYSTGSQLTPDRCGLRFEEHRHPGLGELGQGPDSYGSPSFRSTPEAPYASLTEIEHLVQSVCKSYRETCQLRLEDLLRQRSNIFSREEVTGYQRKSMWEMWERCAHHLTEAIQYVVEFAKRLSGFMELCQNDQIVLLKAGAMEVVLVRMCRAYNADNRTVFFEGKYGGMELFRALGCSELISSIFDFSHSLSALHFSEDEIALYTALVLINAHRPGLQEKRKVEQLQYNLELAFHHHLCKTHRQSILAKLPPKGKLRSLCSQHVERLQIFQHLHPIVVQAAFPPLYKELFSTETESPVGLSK
# assay comment: RORγt (full-length human) reporter assay, Conditions B or C
# Assay type: cell-based
# measurement parameters: Conditions B or C; marked *: footnote not given
property label: RORγt (FL) Reporter Assay B or C, % inhibition (value marked *)

C[C@H]1CC(F)(F)CN1C(=O)c1nc(C(=O)N[C@H]2COC[C@@H]2O)sc1-c1cnc(NC2(C)CCC2)cc1C(F)(F)F :: 98* %
CC[C@H](Nc1cc(C(F)F)c(-c2sc(C(=O)N[C@@H](C)[C@H](C)O)nc2C(=O)N2CCC[C@@H]2C)cn1)C(F)(F)F (relative stereo) :: 109* %
C[C@H](Nc1cc(C(F)F)c(-c2sc(C(=O)NC3CS(=O)(=O)C3)nc2C(=O)N2CC(F)(F)C[C@@H]2C)cn1)C(F)(F)F :: 101* %

* * *

# study system: human RORγt ligand binding domain (RORγt LBD) (Homo sapiens (Human))
# assay comment: RORγt ThermoFluor® assay (thermal shift binding)
# measurement parameters: read-out: ThermoFluor® Assay, Kd
// boundary case: Kd equal to 2 nM maps to FALSE; strictly smaller maps to TRUE

C[C@H](Nc1cc(C(F)F)c(-c2sc(C(=O)N[C@@H]3CC[C@@H](O)C3)nc2C(=O)N2CC(F)(F)C[C@@H]2C)cn1)C(F)(F)F [Example 410] :: TRUE
CC[C@H](Nc1cc(C(F)F)c(-c2sc(C(=O)N[C@@H]3C[C@H]3O)nc2C(=O)N2CCC[C@@H]2C)cn1)C(F)(F)F (relative stereo) [Example 213] :: FALSE
C[C@H](Nc1cc(C(F)F)c(-c2sc(C(=O)NC3CCOCC3)nc2C(=O)N2CC(F)(F)C[C@@H]2C)cn1)C(F)(F)F [Example 448] :: TRUE
C[C@H]1CC(F)(F)CN1C(=O)c1nc(C(=O)N[C@H](C)C(C)(C)O)sc1-c1cnc(NC(C)(C)C)cc1C(F)F [Example 256] :: TRUE
C[C@H]1CCCN1C(=O)c1nc(C(=O)NCC(C)(C)O)sc1-c1cnc(NC(C)(C)CC(F)(F)F)cc1C(F)F [Example 296] :: TRUE
C[C@H]1CCCN1C(=O)c1nc(C(=O)N[C@H]2C[C@H](O)C2)sc1-c1cnc(NC(C)(C)C)cc1C(F)F [Example 400] :: FALSE
C[C@H]1CCCN1C(=O)c1nc(C(=O)N[C@H]2CC[C@H](O)C2)sc1-c1cnc(NC(C)(C)C)cc1C(F)F [Example 414] :: TRUE
C[C@H](Nc1cc(C(F)F)c(-c2sc(C(=O)N[C@H]3CC[C@@H]3O)nc2C(=O)N2CCC[C@@H]2C)cn1)C(F)(F)F (relative stereo) [Example 388] :: FALSE
C[C@H](NC(=O)c1nc(C(=O)N2CCC[C@@H]2C)c(-c2cnc(N[C@H](C3CC3)C(F)(F)F)cc2C(F)F)s1)C(C)(C)O [Example 333] :: TRUE
CC[C@H](Nc1cc(C(F)F)c(-c2sc(C(=O)N3CC(S(C)(=O)=O)C3)nc2C(=O)N2CCC[C@@H]2C)cn1)C(F)(F)F [Example 393] :: FALSE
C[C@H](Nc1cc(C(F)F)c(-c2sc(C(=O)N[C@H]3C[C@H](O)C3)nc2C(=O)N2C3CCC2CC3)cn1)C(F)(F)F [Example 221] :: FALSE
C[C@H](Nc1cc(C(F)F)c(-c2sc(C(=O)N[C@@H](C)C(C)(C)O)nc2C(=O)N2CC(F)(F)C[C@@H]2C)cn1)C1CC1 [Example 193] :: FALSE
C[C@H]1CC(F)(F)CN1C(=O)c1nc(C(=O)N[C@H](C)C(C)(C)O)sc1-c1cnc(N[C@@H](C2CC2)C(F)(F)F)cc1C(F)F [Example 314] :: TRUE

* * *

# study system: human RORγt ligand binding domain (RORγt LBD) (Homo sapiens (Human), UniProt P51449)
# Sequence (P51449 other isoform, or with tags, fused parts or gaps): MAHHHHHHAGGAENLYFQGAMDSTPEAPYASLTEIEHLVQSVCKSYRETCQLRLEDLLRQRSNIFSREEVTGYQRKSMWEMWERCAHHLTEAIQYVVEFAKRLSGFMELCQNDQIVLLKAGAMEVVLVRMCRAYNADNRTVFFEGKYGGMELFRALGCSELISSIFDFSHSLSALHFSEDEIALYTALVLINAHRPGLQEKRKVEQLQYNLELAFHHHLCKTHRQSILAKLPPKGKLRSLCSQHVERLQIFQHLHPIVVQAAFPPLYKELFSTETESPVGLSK
# assay comment: RORγt ThermoFluor® assay (thermal shift binding)
# measurement parameters: read-out: ThermoFluor® Assay, Kd
pKd: −log10 of the molar value.
property label: pKd

C[C@H]1CCCN1C(=O)c1nc(C(=O)NCc2n[nH]c(=O)[nH]2)sc1-c1cnc(NC(C)(C)C)cc1C(F)(F)F [Example 302] :: 7.31
C[C@H](Nc1cc(C(F)F)c(-c2sc(C(=O)NC3CCC3O)nc2C(=O)N2CCC[C@@H]2C)cn1)C(F)(F)F (stereo partly shown) [Example 389] :: 8.11
C[C@H]1CCCN1C(=O)c1nc(C(=O)NC2CCOCC2)sc1-c1cnc(NC(C)(C)C)cc1C(F)F [Example 412] :: 8.47
[2H]C([2H])([2H])C(O)(CNC(=O)c1nc(C(=O)N2CCC[C@@H]2C)c(-c2cnc(NC(C)(C)C)cc2C(F)(F)F)s1)C([2H])([2H])[2H] [Example 180] :: 8.74
CC[C@H](Nc1cc(C(F)F)c(-c2sc(C(=O)N[C@@H](C)C(C)(C)O)nc2C(=O)N2CCC[C@@H]2C)cn1)C(F)(F)F [Example 272] :: 8.68
CC(C)(O)CNC(=O)c1nc(C(=O)N2CCC(F)CC2)c(-c2cnc(NC3CCCC(F)(F)C3)cc2C(F)(F)F)s1 (stereo not shown) [Example 23] :: 7.52
C[C@H](NC(=O)c1nc(C(=O)N2C3CCC2CC3)c(-c2cnc(N[C@@H](C)C(F)(F)F)cc2C(F)F)s1)C(C)(C)O [Example 446] :: 7.89
C[C@H]1CCN1C(=O)c1nc(C(=O)NCC(C)(C)O)sc1-c1cnc(NC2CCCCC2)cc1C(F)(F)F [Example 25] :: 6.92
C[C@H]1CCCN1C(=O)c1nc(C(=O)N[C@@H]2CC[C@@H](O)C2)sc1-c1cnc(NC(C)(C)C)cc1C(F)F [Example 432] :: 8.89
CC[C@H](Nc1cc(C(F)F)c(-c2sc(C(=O)N[C@@H]3CC[C@@H](O)C3)nc2C(=O)N2CC(F)(F)C[C@@H]2C)cn1)C(F)(F)F [Example 424] :: 9.64
CC(C)(C)Nc1cc(C(F)F)c(-c2sc(C(=O)N[C@H]3CC[C@H](O)C3)nc2C(=O)N2C3CCC2CC3)cn1 [Example 413] :: 9.09
C[C@H]1CCCN1C(=O)c1nc(C(=O)N2CC(O)C2)sc1-c1cnc(NC(C)(C)C)cc1C(F)(F)F [Example 250] :: 8.09
C[C@H]1CCCN1C(=O)c1nc(C(=O)NC2COC2)sc1-c1cnc(NC(C)(C)C)cc1C(F)(F)F [Example 259] :: 8.52

* * *

# study system: human RORγt ligand binding domain (RORγt LBD) (Homo sapiens (Human), UniProt P51449)
# assay comment: RORγt ThermoFluor® assay (thermal shift binding)
# measurement parameters: read-out: ThermoFluor® Assay, Kd
Measured Kd of individual entries
property label: Kd (nM)

C[C@H]1CC(F)(F)CN1C(=O)c1nc(C(=O)NCC(C)(C)O)sc1-c1cnc(NC(C)(C)C2CC2)cc1C(F)(F)F :: 0.26
C[C@H]1CCCN1C(=O)c1nc(C(=O)N[C@H]2C[C@H](O)C2)sc1-c1cnc(NC2(C)CCC2)cc1C(F)F :: 8.2
C[C@H]1CCCN1C(=O)c1nc(C(=O)N[C@H](C)C(C)(C)O)sc1-c1cnc(NC2(C)CCC2)cc1C(F)F :: 5.2
CC[C@H](Nc1cc(C(F)F)c(-c2sc(C(=O)N[C@H](C)CO)nc2C(=O)N2CC(F)(F)C[C@@H]2C)cn1)C(F)(F)F :: 1.1
CC[C@H](Nc1cc(C(F)F)c(-c2sc(C(=O)NC3CN(S(C)(=O)=O)C3)nc2C(=O)N2CCC[C@@H]2C)cn1)C(F)(F)F :: 2.6
C[C@H](Nc1cc(C(F)F)c(-c2sc(C(=O)N[C@H]3C[C@@H]3O)nc2C(=O)N2CCC[C@@H]2C)cn1)C(F)(F)F (relative stereo) [Example 223] :: 33
C[C@H]1CCCN1C(=O)c1nc(C(=O)NCC(C)(C)O)sc1-c1cnc(NC2CCCC2)cc1C(F)F :: 9.3

* * *

# study system: full-length human RORγt (Homo sapiens (Human), UniProt P51449)
# assay comment: RORγt (full-length human) reporter assay, Conditions B or C
# Format: cell-based
# measurement parameters: Conditions B or C; read-out: RORγt (FL) Reporter Assay B or C, IC50
pIC50: −log10 of the molar value.
property label: pIC50

C[C@@H](Nc1cc(C(F)(F)F)c(-c2sc(C(=O)NCC(C)(C)O)nc2C(=O)N2CCC[C@@H]2C)cn1)C1CC1 :: 7.64
C[C@H](Nc1cc(C(F)F)c(-c2sc(C(=O)N[C@H](C)C(C)(C)O)nc2C(=O)N2CCC[C@@H]2C)cn1)C(F)(F)F :: 6.70
C[C@H]1CCCN1C(=O)c1nc(C(=O)NCC(C)(C)O)sc1-c1cnc(NCC2(C(F)(F)F)CC2)cc1C(F)(F)F :: 7.23
CC[C@H](Nc1cc(C(F)F)c(-c2sc(C(=O)N[C@@H](C)[C@@H](C)O)nc2C(=O)N2CCC[C@@H]2C)cn1)C(F)(F)F (relative stereo) :: 7.70
C[C@H]1CCCCN1C(=O)c1nc(C(=O)NCC(C)(C)O)sc1-c1cnc(NC2(C)CCC2)cc1C(F)(F)F :: 8.03
C[C@H](Nc1cc(C(F)F)c(-c2sc(C(=O)N[C@@H]3C[C@H]3O)nc2C(=O)N2CCC[C@@H]2C)cn1)C(F)(F)F (single isomer, unassigned) :: 6.72
